- assayRemarks: Inhibition of PMA-induce ROS/RNS generation in human neutrophils measured up to 30 mins in presence of 5.5 mM glucose by luminol-amplified chemiluminescence method
- Assay type: functional, tissue-based
- studyConditions: Neutrophil, 0.5 h
pIC50: −log10 of the molar value.
Cut-off 5 on pIC50, inclusive. At or above means TRUE; below means FALSE.

compound: COc1ccc(/C=C/C(=O)c2ccccc2)cc1OC
assignedLabel: FALSE
//
compound: COc1ccc(/C=C/C(=O)c2ccccc2O)cc1OC
assignedLabel: TRUE
//
compound: Cc1cccc(/C=C/C(=O)c2ccccc2O)c1
assignedLabel: TRUE
//
compound: COc1cc(/C=C/C(=O)c2ccccc2O)cc(OC)c1OC
assignedLabel: TRUE
//
compound: O=C(/C=C/c1ccc(O)cc1O)c1ccc(O)cc1O
assignedLabel: TRUE
//
compound: O=C(/C=C/c1cccc(O)c1)c1ccccc1 [3-HYDROXY CHALCONE]
assignedLabel: FALSE

###

Entries and their IC50
- assayRemarks: Inhibition of PMA-induce ROS/RNS generation in human neutrophils measured up to 30 mins in presence of 5.5 mM glucose by luminol-amplified chemiluminescence method
- Assay type: functional, tissue-based
- studyConditions: Neutrophil, 0.5 h
measurementKind: IC50 (µM)

molecule: COc1cc(/C=C/C(=O)c2ccccc2O)ccc1O
recordedMeasurement: 1
--
molecule: O=C(/C=C/c1ccc(O)c(O)c1)c1c(O)cc(O)cc1O [3,4,2',4',6'-PENTAHYDROXYCHALCONE]
recordedMeasurement: 4.4
--
molecule: O=C(/C=C/c1ccc(O)cc1)c1ccccc1O
recordedMeasurement: 1.6
--
molecule: COc1cccc(/C=C/C(=O)c2ccccc2O)c1
recordedMeasurement: 3
--
molecule: O=C(/C=C/c1ccc(O)cc1)c1ccccc1 [4-HYDROXYCHALCONE]
recordedMeasurement: 8.8
--
molecule: COc1cc(O)c(C(=O)/C=C/c2ccc(OC)c(OC)c2)c(OC)c1
recordedMeasurement: 78
--
molecule: O=C(/C=C/c1ccccc1O)c1ccccc1
recordedMeasurement: 6.7
--
molecule: O=C(/C=C/c1ccccc1)c1ccccc1
recordedMeasurement: 13
--
molecule: COc1ccc(/C=C/C(=O)c2ccc(O)cc2O)cc1OC
recordedMeasurement: 6.4
--
molecule: O=C(/C=C/c1ccc(Cl)cc1)c1ccccc1
recordedMeasurement: 5.4
--
molecule: O=C(/C=C/c1ccccc1O)c1ccccc1O
recordedMeasurement: 5.8
